Listing of entries alongside the reported pIC50.
- TESTED_TARGET: Human recombinant MMP1 (Homo sapiens)
- Sequence (P03956 100-469): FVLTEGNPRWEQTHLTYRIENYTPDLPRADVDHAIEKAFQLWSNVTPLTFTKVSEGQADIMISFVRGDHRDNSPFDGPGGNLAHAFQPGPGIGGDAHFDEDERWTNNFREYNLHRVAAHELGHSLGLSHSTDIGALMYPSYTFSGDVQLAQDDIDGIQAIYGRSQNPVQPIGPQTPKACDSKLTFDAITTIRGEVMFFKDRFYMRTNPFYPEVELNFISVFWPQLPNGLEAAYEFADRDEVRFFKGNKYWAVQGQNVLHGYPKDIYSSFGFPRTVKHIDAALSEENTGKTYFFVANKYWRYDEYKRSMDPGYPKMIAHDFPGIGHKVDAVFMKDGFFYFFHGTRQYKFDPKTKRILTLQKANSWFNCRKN
- ASSAY_COMMENT: MMP1 (Collagenase-1) inhibition, 14C collagen release
- APPLIED_CONDITIONS: 35° C., 5 hours; read-out: MMP-1 inhibitory activity, IC50
Quick note: pIC50 values are minus log10 of concentrations in mol/L.

MOLECULE: CC1c2c(N)cc(C(C)(C)C)c(O)c2C(=O)C2=C(O)C3(O)C(=O)C(C(N)=O)=C(O)C(N(C)C)C3C(O)C21 (stereo not drawn) [Compound 44]
TESTED_TARGET: Human recombinant MMP1 (Homo sapiens)
pIC50: 2.84
//
MOLECULE: CCCN(CCC)c1ccc(O)c2c1C(C)C1C(=C(O)C3(O)C(=O)C(C(N)=O)=C(O)C(N(C)C)C3C1O)C2=O (stereo not drawn) [Compound 24]
TESTED_TARGET: Human recombinant MMP1 (Homo sapiens)
pIC50: 3.39
//
MOLECULE: CC1c2c(N(CCC(C)(C)C)CCC(C)(C)C)ccc(O)c2C(=O)C2=C(O)C3(O)C(=O)C(C(N)=O)=C(O)C(N(C)C)C3C(O)C21 (stereo not drawn) [Compound 19]
TESTED_TARGET: Human recombinant MMP1 (Homo sapiens)
pIC50: 3.57
//
MOLECULE: CC1c2ccc(N)c(O)c2C(=O)C2=C(O)C3(O)C(=O)C(C(N)=O)=C(O)CC3C(O)C21 (stereo not drawn) [Compound 36]
TESTED_TARGET: Human recombinant MMP1 (Homo sapiens)
pIC50: 3.27
//
MOLECULE: C[C@H]1c2c(N)ccc(O)c2C(=O)C2=C(O)[C@]3(O)C(=O)C(C(N)=O)=C(O)C[C@@H]3[C@@H](O)[C@@H]21 [Compound 48]
TESTED_TARGET: Human recombinant MMP1 (Homo sapiens)
pIC50: 1.89

q: For CC1c2c([N+]#N)cc(C(C)(C)C)c(O)c2C(=O)C2=C(O)C3(O)C(=O)C(C(N)=O)=C(O)C(N(C)C)C3C(O)C21 (stereo not drawn) [Compound 43] , write its pIC50.
a: 3.22
